# Tested on: PAK2
# assay_conditions: concentration: 1 μM,replicates: in singlicate; n = 1;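 further: KINOMEscan kinase panel screen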
recorded_endpoint: %Inh

{"columns": ["compound", "recorded_endpoint", "result"],
 "data": [
  ["Cc1ccc2c(-c3ccnc(Nc4ccc(C(F)(F)F)cc4)n3)cnn2n1", "%Inh", "50%"],
  ["COc1cccc(C2=C(Nc3cccc(Cl)c3)C(=O)NC2=O)c1", "%Inh", "19%"],
  ["COc1cc2nccc(Nc3ccc(Oc4ccccc4)cc3)c2cc1OC.Cl", "%Inh", "0%"],
  ["Cn1ccc2ncnc(Oc3ccc(NC(=O)Nc4cnn(C(C)(C)C)c4)c(Cl)c3)c21", "%Inh", "34%"],
  ["O=C(Nc1cccc(Oc2ccc3nccn3n2)c1)Nc1cccc(C(F)(F)F)c1", "%Inh", "0%"],
  ["C[C@@H](Oc1cc(-n2cnc3cc(-c4cnn(C)c4)ccc32)sc1C(N)=O)c1ccccc1Cl", "%Inh", "13%"],
  ["CCOC(=O)N1CCC(n2cnc(-c3ccc(F)cc3)c2-c2ccnc(N)n2)CC1", "%Inh", "26%"],
  ["CS(=O)(=O)c1cccc(CNc2nc(Nc3ccc4c(c3)[C@@H]3C[C@@H]4CNC3=O)ncc2C(F)(F)F)c1", "%Inh", "12%"],
  ["O=C(Nc1ccc(Oc2ccc3nc(NC(=O)C4CC4)cn3n2)c(F)c1)c1cccn(-c2ccccc2)c1=O", "%Inh", "0%"],
  ["Cc1cccc2c(-c3ccncc3)c(-c3ccc(F)cc3)nn12.Cl", "%Inh", "8%"],
  ["C[C@@H](Oc1cc(-n2cnc3ccc(-c4ccncc4)cc32)sc1C(N)=O)c1ccccc1Cl", "%Inh", "29%"],
  ["c1ccc(Oc2ccc(Nc3ccnc4ccc(-c5ccccn5)cc34)cc2)cc1", "%Inh", "11%"],
  ["CCn1c(-c2nonc2N)nc2cncc(Br)c21", "%Inh", "16%"],
  ["CS(=O)(=O)Nc1ccc(-c2ccnc3[nH]ccc23)cc1", "%Inh", "27%"],
  ["O=C(NCC1CC1)c1ccc(-c2cc(C(=O)NC3CC3)ccc2F)cc1", "%Inh", "26%"],
  ["COc1cccc(CNC(=O)NC2CCN(c3ccnc(Nc4cc(OC)c(OC)c(OC)c4)n3)C2)c1 (stereo not drawn)", "%Inh", "8%"],
  ["NC(=O)Nc1sc(-c2ccc(F)cc2)cc1C(N)=O", "%Inh", "4%"],
  ["Cn1ccc2ncnc(Oc3ccc(NC(=O)Nc4cc(C(C)(C)C)on4)c(Cl)c3)c21", "%Inh", "23%"],
  ["Cn1ccc2ncnc(Oc3ccc(NC(=O)Nc4cncc(C(F)(F)F)c4)c(Cl)c3)c21", "%Inh", "0%"],
  ["O=C1NCCc2[nH]c(-c3ccncc3)cc21", "%Inh", "40%"],
  ["CC(=O)Nc1nc2cnc(Nc3cc(NC(=O)c4cccc(CC(C)(C)C#N)c4)ccc3C)nc2s1", "%Inh", "25%"]
]}

====

# Test system: JNK2
# Construct: gene MAPK9
# assay_conditions: concentration: 1 μM,replicates: in singlicate; n = 1
Just a reminder that ties go to Not fulfilled: only %Inh strictly below 20% counts as Fulfilled.

{"columns": ["compound", "assigned_label"],
 "data": [
  ["COc1cc2nccc(Nc3ccc(Oc4ccccc4)cc3)c2cc1OC.Cl [GI261656]", "Fulfilled"],
  ["CC(=O)c1c(-c2ccncc2)[nH]c(-c2ccncc2)c1C [GW493036]", "Fulfilled"],
  ["C[C@@H](Oc1cc(-n2cnc3ccc(-c4ccncc4)cc32)sc1C(N)=O)c1ccccc1Cl [GSK483724]", "Not fulfilled"],
  ["Cc1nnc(-c2ccc3occ(-c4ccc(S(C)=O)cc4)c3n2)o1 (stereo not shown)", "Fulfilled"],
  ["C[C@@H](Oc1cc(-n2cnc3cc(-c4ccncc4)ccc32)sc1C(N)=O)c1ccccc1Cl [GSK479719]", "Fulfilled"],
  ["COC(=O)c1cccc(NC(=O)NC2CCN(c3ccnc(NCc4ccc(F)cc4)n3)CC2)c1 [GSK1379860]", "Not fulfilled"],
  ["COc1cc2c(Nc3ccc(NC(=O)c4ccccc4)cc3)ncnc2cc1OCCCN1CCOCC1 [GSK301329]", "Fulfilled"],
  ["CC(=O)Nc1nc2cnc(Nc3cc(NC(=O)c4cccc(CC(C)(C)C#N)c4)ccc3C)nc2s1", "Not fulfilled"],
  ["Cl.Cl.NC[C@H](CC1CCCCC1)NC(=O)c1ccc(-c2ccnc3[nH]ccc23)s1 [GSK1581428]", "Fulfilled"]
]}
